Just for reference, the supplement of paper PMC4466140 is where these values come from.

EXPERIMENTAL TARGET: SpPex13
EXPERIMENTAL PROTOCOL: SPOT peptide array binding signal intensity (averaged, normalized) (arbitrary units (background-subtracted, floor 0; scale differs between SH3 domains)); higher = stronger binding of the SH3 domain to the peptide
MEASURED PARAMETER: SPOT peptide array binding signal intensity

[[record]]
binder = "IKTRSVPKIPSIESV"
value_operator = "≤"
experimental_value = 0

[[record]]
binder = "HKVLRPFLLRRLKKD"
value_operator = "="
experimental_value = 13.5

[[record]]
binder = "SNRRPVPRRPSQPLN"
value_operator = "="
experimental_value = 4

[[record]]
binder = "NPLPKEPRLPKRKVA"
value_operator = "="
experimental_value = 15

[[record]]
binder = "GRLRPKRIAPWHLIQ"
value_operator = "="
experimental_value = 4

[[record]]
binder = "RLSFFFPLDPAYIRN"
value_operator = "="
experimental_value = 23.5

[[record]]
binder = "ATNVPVAPPPPPASL"
value_operator = "≤"
experimental_value = 0

[[record]]
binder = "TKFRISLGLPVGAIM"
value_operator = "="
experimental_value = 239

[[record]]
binder = "RAPPPVPKKPSSRIA"
value_operator = "≤"
experimental_value = 0

[[record]]
binder = "RPVPRRPSQPLNTLS"
value_operator = "="
experimental_value = 4.25

[[record]]
binder = "MFLISPPASPPPEFD"
value_operator = "="
experimental_value = 2.5

[[record]]
binder = "HPRFVSPRIPSRIVK"
value_operator = "="
experimental_value = 32

[[record]]
binder = "SSSSTPPTLPPRRIE"
value_operator = "="
experimental_value = 4

[[record]]
binder = "NFKRLLPRDPSEKSS"
value_operator = "="
experimental_value = 5

[[record]]
binder = "LKPPIGRPPKFPKSP"
value_operator = "≤"
experimental_value = 0

[[record]]
binder = "GKKVRPLLVLLLSRA"
value_operator = "="
experimental_value = 3

[[record]]
binder = "DLPLPDLPPEPPTEL"
value_operator = "≤"
experimental_value = 0

[[record]]
binder = "PPIPIVPSSPAPPLP"
value_operator = "≤"
experimental_value = 0

[[record]]
binder = "APKREAPKPPANTSP"
value_operator = "≤"
experimental_value = 0

[[record]]
binder = "MSPLGAPPPPPHKDH"
value_operator = "≤"
experimental_value = 0

[[record]]
binder = "GERSRPLVISILSSA"
value_operator = "="
experimental_value = 28

